Assay: ESI positive response factor (isotope-corrected peak area per molar concentration) in SFC/ESI/HRMS (area units per M); higher = higher ionization efficiency;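 also: standards in acetonitrile/water run in triplicate on a zwitterionic HILIC column, CO2–methanol gradient containing 20 mmol/L ammonium acetate, postcolumn makeup flow, Orbitrap full-scan detection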
Conditions: 0.244 µM
measured-parameter: ESI positive response factor
Numbers only.

Please review the following examples before continuing.
Query NCC1(CC(=O)O)CCCCC1 [Gabapentin] yields ESI positive response factor of 2.98e+16

The value of ESI positive response factor measured for the compound CC(=O)C1=C(C)C2CC3(C1)C(C)CCC3C2(C)C (stereo not drawn) [Methyl cedryl ketone] turned out to be 1.56e+16

# ESI positive response factor (compound: C[NH2+]C[C@H](O)CO [3-Methylamino-1,2-propanediol] ) is 7.28e+16

The reported value for CON(C)C(=O)Nc1ccc(Cl)c(Cl)c1 [Linuron] in terms of ESI positive response factor is 4.46e+16

Recorded ESI positive response factor (compound Nc1nc(N)nc(N)n1 [Melamine] ): 1.82e+16

Batch lookup, ESI positive response factor per entry.
1. Cc1cccc(C)c1N(Cn1cccn1)C(=O)CCl [Metazachlor]
2. Nc1cccc2c1CN(C1CCC(=O)NC1=O)C2=O (stereo not drawn) [Lenalidomid]
3. N[C@@H](Cc1ccccc1)C(=O)O [L-Phenylalanin]

["2.65e+17", "4.65e+14", "1.44e+16"]

###

Could you please report measured ESI positive response factor for the items listed next?
Test: ESI positive response factor (isotope-corrected peak area per molar concentration) in SFC/ESI/HRMS (area units per M); higher = higher ionization efficiency
Settings: 1.22 µM

Before answering, review these 4 worked examples.
get_value(item= COCC(=O)Nc1c(I)c(C(=O)NCC(O)CO)c(I)c(C(=O)N(C)CC(O)CO)c1I (stereo not drawn) [Iopromide] , readout=ESI positive response factor) returns 1.27e+15

Query NCC1(CC(=O)O)CCCCC1 yields ESI positive response factor of 3.28e+16

Looking up CCSC(=O)N1CCCCCC1 [Molinate] , I see its ESI positive response factor listed as 1.93e+16

Recorded result, CC(=O)C1=C(C)C2CC3(C1)C(C)CCC3C2(C)C (stereo not drawn) , ESI positive response factor: 1.44e+16

List reported ESI positive response factor for each of these molecules:
1. NC(=O)N=C(N)N
2. CC(Oc1ccc(Oc2ncc(C(F)(F)F)cc2Cl)cc1)C(=O)O (stereo not drawn)
3. Cn1sccc1=O
4. Nc1cccc2c1CN(C1CCC(=O)NC1=O)C2=O (stereo not drawn)

["2.64e+15", "4.69e+15", "1.18e+15", "7.56e+14"]

###

Give ESI positive response factor for every item shown.
Assay: ESI positive response factor (isotope-corrected peak area per molar concentration) in SFC/ESI/HRMS (area units per M); higher = higher ionization efficiency
Conditions: 0.61 µM
Give bare numbers.

These recorded examples may help you get a feel for the data.
The reported ESI positive response factor of the compound CC(Oc1ccc(Oc2ncc(C(F)(F)F)cc2Cl)cc1)C(=O)O (stereo not given) [Haloxyfop] was 5.23e+15

ESI positive response factor recorded for this compound, CC(=O)C1=C(C)C2CC3(C1)C(C)CCC3C2(C)C (stereo not given) [Methyl cedryl ketone] , is 1.43e+16

The reported value for O=C(O)[C@@H]1C[C@@H](O)CN1 [L-Hydroxyprolin] in terms of ESI positive response factor is 2.85e+15

Reported ESI positive response factor of COCC(=O)Nc1c(I)c(C(=O)NCC(O)CO)c(I)c(C(=O)N(C)CC(O)CO)c1I (stereo not given) [Iopromide] : 1.19e+15

Continue with the next compound.
ESI positive response factor for COc1ccc2c(c1)c(CC(=O)O)c(C)n2C(=O)c1ccc(Cl)cc1 [Indomethacin] is 1.99e+16
